Cited source for all entries: PubChem BioAssay AID192

# System: BDF1 mice, B16 melanoma ip, median survival T/C
# METHOD SUMMARY: NCI In Vivo Anticancer Drug Screen. Data for tumor model B16 Melanoma (intraperitoneal) in B6D2F1 (BDF1) mice
# STATED CONDITIONS: endpoint: median survival time; dose: 0.5 mg/kg/injection; schedule: Q01DX009 (ip); vehicle: saline; higher = longer survival
Toxic doses and inconclusive results are not listed.

MOLECULE	T/C
O=S(=O)([O-])NC1CCCCC1.O=S(=O)([O-])NC1CCCCC1.[Hg+2].[Hg+2].[Hg+2].[O-2].[O-2]	98 % of control
COc1cc([C@@H]2c3cc4c(c(O)c3C[C@H]3COC(=O)[C@@H]32)OCO4)cc(OC)c1O	107 % of control
CN1C(=O)CCS(=O)(=O)C1c1ccc(Cl)cc1 (configuration not stated)	111 % of control
CO[C@@]12[C@H](COC(N)=O)C3=C(C(=O)C(C)=C(N)C3=O)N1C[C@@H]1N[C@@H]12	159 % of control
CCN(CC)CCNc1ccc(CO)c2sc3ccccc3c(=O)c12	94 % of control
[Cl][Pt+2][Cl].[NH-]CC1(C[NH-])CCCC1	124 % of control
COc1cc([C@@H]2c3cc4c(c(O)c3C[C@H]3COC(=O)[C@@H]32)OCO4)cc(OC)c1OC	109 % of control

###

# Test system: BDF1 mice, B16 melanoma ip, median survival T/C
# METHOD SUMMARY: NCI In Vivo Anticancer Drug Screen. Data for tumor model B16 Melanoma (intraperitoneal) in B6D2F1 (BDF1) mice
# STATED CONDITIONS: endpoint: median survival time; dose: 200.0 mg/kg/injection; schedule: Q01DX009 (ip); vehicle: other; higher = longer survival
Toxic doses and inconclusive results are not listed.
Listing of recorded T/C by entry.

COMPOUND	T/C
C/C(=N\O)c1ccccn1	97 % of control
CCCCCCC(O)CCCC (stereo not given)	90 % of control
CC(C)CCC[C@@H](C)[C@H]1CC[C@H]2[C@@H]3CC=C4C[C@@H](O)CC[C@]4(C)[C@H]3CC[C@]12C	114 % of control
Cc1ccc(S(=O)(=O)N/N=C/c2ccccc2)cc1	103 % of control
C1CCC(OB2OB(OC3CCCCC3)OB(OC3CCCCC3)O2)CC1	102 % of control

###

Listing of recorded T/C by entry.
# System: BDF1 mice, B16 melanoma ip, median survival T/C
# METHOD SUMMARY: NCI In Vivo Anticancer Drug Screen. Data for tumor model B16 Melanoma (intraperitoneal) in B6D2F1 (BDF1) mice
# STATED CONDITIONS: endpoint: median survival time; dose: 100.0 mg/kg/injection; schedule: Q01DX009 (ip); vehicle: Klucel (hydroxypropylcellulose) (HPC); higher = longer survival
Inconclusive results and toxic doses are left out.

COMPOUND	SUBJECT OF TEST	T/C
CC(=O)O[C@]1(C(C)=O)CC[C@H]2[C@@H]3C[C@H](C)C4=CC(=O)CC[C@]4(C)[C@H]3CC[C@@]21C	BDF1 mice, B16 melanoma ip, median survival T/C	96 % of control
O=S(=O)(OCC(F)(F)F)c1ccccc1	BDF1 mice, B16 melanoma ip, median survival T/C	100 % of control
CCOC(=O)C(C(=O)OCC)N(CC)CC	BDF1 mice, B16 melanoma ip, median survival T/C	93 % of control
COC1=CC(=O)C(O)=C(CC2(C)C(C)CCC3(C)C2CCCC3(C)C)C1=O (configuration not stated)	BDF1 mice, B16 melanoma ip, median survival T/C	100 % of control
CCCCCCCC(O)CCCC (configuration not stated)	BDF1 mice, B16 melanoma ip, median survival T/C	92 % of control
C=CCNC(=S)Nc1cc(Cl)ccc1OC	BDF1 mice, B16 melanoma ip, median survival T/C	93 % of control
CCCCCCCCCCCCCCCC(=O)N(CCCN)C(C)CCCN(CC)CC (configuration not stated)	BDF1 mice, B16 melanoma ip, median survival T/C	101 % of control
CCCCCCOP(=O)(CCCCCC)OCCCCCC	BDF1 mice, B16 melanoma ip, median survival T/C	97 % of control
CC1(C)N=C(N)N=C(N)N1c1cccc(CC(=O)Nc2ccc(S(=O)(=O)F)cc2)c1	BDF1 mice, B16 melanoma ip, median survival T/C	109 % of control
N#CCCCc1ccccc1	BDF1 mice, B16 melanoma ip, median survival T/C	106 % of control
c1ccc2[nH]c(/N=N/c3nc4ccccc4[nH]3)nc2c1	BDF1 mice, B16 melanoma ip, median survival T/C	102 % of control
S=C(SSSSC(=S)N1CCCCC1)N1CCCCC1	BDF1 mice, B16 melanoma ip, median survival T/C	95 % of control
CCCCCCCCCCCCCCCC(=O)NNC(C)C	BDF1 mice, B16 melanoma ip, median survival T/C	86 % of control
Cc1cccc(NC(=O)c2ccc(Cl)cc2)c1C	BDF1 mice, B16 melanoma ip, median survival T/C	93 % of control
Clc1ccccc1C=Nc1ccc2c(c1)Cc1ccccc1-2	BDF1 mice, B16 melanoma ip, median survival T/C	96 % of control
CC(OC(C)c1ccccc1)c1ccccc1 (configuration not stated)	BDF1 mice, B16 melanoma ip, median survival T/C	113 % of control
CCOC(=O)NC(C)(C)CC(C)(C)C	BDF1 mice, B16 melanoma ip, median survival T/C	106 % of control
CC(=O)CC(=O)Nc1cccc([N+](=O)[O-])c1	BDF1 mice, B16 melanoma ip, median survival T/C	94 % of control
O=C1CC2(C(=O)N1CN1CCCCC1)c1ccccc1-c1ccccc12	BDF1 mice, B16 melanoma ip, median survival T/C	112 % of control
Nc1nc2[nH]c(=O)cnc2c(=O)[nH]1	BDF1 mice, B16 melanoma ip, median survival T/C	86 % of control
CC(=O)CC(=O)N1CCC(C)CC1	BDF1 mice, B16 melanoma ip, median survival T/C	110 % of control
COc1ccc(CC(C(=O)O)C(Cc2ccc(OC)c(OC)c2)C(=O)O)cc1OC (configuration not stated)	BDF1 mice, B16 melanoma ip, median survival T/C	94 % of control
CC(=O)Oc1ccc(C)cc1	BDF1 mice, B16 melanoma ip, median survival T/C	112 % of control
Cc1[nH]c(=O)[nH]c(=O)c1[N+](=O)[O-]	BDF1 mice, B16 melanoma ip, median survival T/C	100 % of control
O=C1c2ccccc2-c2ncccc21	BDF1 mice, B16 melanoma ip, median survival T/C	87 % of control
CN(C)N=Nc1ccc(S(N)(=O)=O)cc1	BDF1 mice, B16 melanoma ip, median survival T/C	98 % of control
COc1cc2c(cc1OC)/C(=C\C(=O)N1CCCC1=O)CCC2	BDF1 mice, B16 melanoma ip, median survival T/C	97 % of control

###

# System: BDF1 mice, B16 melanoma ip, median survival T/C
# METHOD SUMMARY: NCI In Vivo Anticancer Drug Screen. Data for tumor model B16 Melanoma (intraperitoneal) in B6D2F1 (BDF1) mice
# STATED CONDITIONS: endpoint: median survival time; dose: 200.0 mg/kg/injection; schedule: Q01DX009 (ip); vehicle: saline
Toxic doses and inconclusive results are not listed. The calls were made as follows: active = survival T/C of 150% or more; inactive = T/C below 125% in these data.
Possible outcomes: class 1 (active), class 0 (inactive)

MOLECULE	QUALITATIVE LABEL
O=C1NC(=O)c2ccccc21	class 0
Cn1c(=O)c2c(ncn2CCO)n(C)c1=O	class 0
CCC(C)(CC)OC(N)=O	class 0
COc1cc2ccc(C(C)N)cc2cc1OC (configuration not stated)	class 0
CC(N)Cc1ccc(O)cc1 (configuration not stated)	class 0
COC(=O)[C@@H]1c2cc3c(c(O)c2[C@@H](OC)C[C@@]1(C)O)C(=O)c1c(O)cc2c(c1C3=O)OC1O[C@@]2(C)[C@H](O)[C@@H](N(C)C)[C@@H]1O	class 1
CC(C)C1NC(=O)NC1=O (configuration not stated)	class 0

###

# Tested on: BDF1 mice, B16 melanoma ip, median survival T/C
# METHOD SUMMARY: NCI In Vivo Anticancer Drug Screen. Data for tumor model B16 Melanoma (intraperitoneal) in B6D2F1 (BDF1) mice
# STATED CONDITIONS: endpoint: median survival time; dose: 100.0 mg/kg/injection; schedule: Q01DX009 (ip); vehicle: saline with Tween-80; higher = longer survival
Inconclusive results and toxic doses are left out.
ENDPOINT: T/C

COMPOUND	MEASURED VALUE
COC1C(O)C(C)OC(OC2C(Oc3cccc4c(O)c5c(=O)oc6ccc(C)c7c(=O)oc(c34)c5c67)OC(C)C(O)C2O)C1O (stereo not given)	185 % of control
O=C(O)COc1ccc([N+](=O)[O-])cc1	96 % of control
CCCCCC(=O)c1ccc(OCCCN2CCN(C(=O)OCC)CC2)cc1	98 % of control
CCOC(=O)c1ccc(NS(=O)c2ccccc2)cc1 (stereo not given)	91 % of control
CN1CCN(Cc2nc3cccc4c3c([n+]2[O-])-c2ccccc2-4)CC1	112 % of control
